Value source: patent US20060079453A1

molecular target: HLA-DR DRB1*1501 (DR15) (Homo sapiens, UniProt P01903+P01911); experiment: biochemical; assay type: binding; conditions: DRBI *1501
Measured IC50, listed per entry.
Unit µM implied. Number only.

Bench note, HLA-DR DRB1*1501 (DR15) (Homo sapiens, UniProt P01903+P01911): entry CC[C@H](C)[C@H](NC(=O)[C@H](CCC(=O)O)NC(=O)[C@@H](NC(=O)[C@H](Cc1ccc(O)cc1)NC(=O)[C@H](CCC(=O)O)NC(=O)[C@@H](N)CCC(=O)O)C(C)C)C(=O)N[C@@H](CCCNC(=N)N)C(=O)N[C@@H](CCC(N)=O)C(=O)N[C@H](C(=O)NCC(=O)N[C@@H](CC(=O)O)C(=O)N[C@@H](Cc1ccccc1)C(=O)N[C@@H](Cc1c[nH]cn1)C(=O)O)C(C)C , its IC50 = 2.06

Bench note, HLA-DR DRB1*1501 (DR15) (Homo sapiens, UniProt P01903+P01911): entry CSCC[C@H](NC(=O)[C@H](CCC(N)=O)NC(=O)[C@@H](NC(=O)[C@H](Cc1ccccc1)NC(=O)[C@H](C)NC(=O)[C@@H](NC(=O)CN)[C@@H](C)O)C(C)C)C(=O)N1CCC[C@H]1C(=O)N[C@@H](C)C(=O)N[C@@H](Cc1c[nH]cn1)C(=O)NCC(=O)N[C@@H](CC(C)C)C(=O)N[C@@H](Cc1ccccc1)C(=O)N1CCC[C@H]1C(=O)N[C@@H](Cc1c[nH]c2ccccc12)C(=O)O , its IC50 = 0.0012

Bench note, HLA-DR DRB1*1501 (DR15) (Homo sapiens, UniProt P01903+P01911): entry CC(C)C[C@H](NC(=O)[C@H](CO)NC(=O)[C@H](CC(C)C)NC(=O)[C@H](CO)NC(=O)[C@H](C)NC(=O)[C@H](C)NC(=O)[C@H](CCCNC(=N)N)NC(=O)[C@H](C)NC(=O)[C@H](CC(C)C)NC(=O)[C@H](CC(C)C)NC(=O)[C@H](CC(C)C)NC(=O)[C@@H]1CCCN1C(=O)[C@H](C)N)C(=O)NCC(=O)N[C@@H](Cc1ccccc1)C(=O)O , its IC50 = 0.091
